# Experimental Target: T1, canine OX40L, full length membrane form, expressed on HEK293 cells (canine)
# T1 construct: also called OX40L expressing HEK; HEK OX40L cells
# T1 chain: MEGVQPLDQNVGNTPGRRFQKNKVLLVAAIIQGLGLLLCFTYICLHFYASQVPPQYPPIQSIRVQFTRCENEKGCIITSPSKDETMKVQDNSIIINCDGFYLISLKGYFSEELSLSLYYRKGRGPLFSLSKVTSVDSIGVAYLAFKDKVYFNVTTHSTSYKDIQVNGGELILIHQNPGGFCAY
# Assay Name: flow cytometry, OX40L HEK minus WT HEK
Listing of recorded GEO mean difference by entry.

PMX111 (antibody, V domains shown) VH: EVQLVESGGDLVRPGGSLRLSCVASGFTFSSYHMNWVRQAPGKGLQWVAFINSGASSATYADVVRGRFTISRDYAKNTLYLQMNSLRAEDTAVYYCASGSIWTHFDFWGQGTLVTVSS VL: SFVLTQLPSVSVTLRQTARITCGGDSVGSKSVYWYQQKLGQAPVLIIYRDSNRPTGIPERFSGASSGNTATLTISGALAEDEADYYCQVWDNSNKAMFGGGTHLTVL ... 643000

The reported GEO mean difference of the binder PMX033 (antibody, V domains shown, also called PMX33) VH: EVQLVESGGDLVKPGGSLRLSCVASGFTFSSYHMSWVRQAPGKGLQWVAYITSGGRTTSYADAVKGRFTISRDNAKNTLYLQMKSLRAEDTAVYYCASDLVLVLGGAEYWGQGTLVTVSS VL: SYELTQPPSVNVTLRETAHITCGGDSIGRKYVQWIQQNPGQAPVVIIYKDSNRPTGIPERFSGANSGNTATLTISGALAEDEADYYCQVGDSGSKAVFGGGTHLTVL was 1.43e+06

For PMX109 (antibody, V domains shown) VH: EVQLVESGGDLVRPGGSLRLSCVASGFTFTNYHMSWVRQAPGKGLQWVAFINSGGSSTTYTDVVRGRFTISRDYAKNTLYLQMNSLTAEDTAVYYCASGSIWTHFDHWGQGTLVTVSS VL: SFVLTQLPSVSVTLRQTARITCGGDSVGSKSVYWYQQKLGQAPVLIIYRDSNRPTGIPERFSGASSGNTATLTISGALAEDEADYYCQVWDNSNKAIFGGGTHLTVL the binder record lists GEO mean difference as 629000

// provenance: patent US20250340659A1
